- TARGET: Interferon-gamma (IFN-γ) (Homo sapiens, UniProt P01579 24-161)
- Sequence (P01579 24-161): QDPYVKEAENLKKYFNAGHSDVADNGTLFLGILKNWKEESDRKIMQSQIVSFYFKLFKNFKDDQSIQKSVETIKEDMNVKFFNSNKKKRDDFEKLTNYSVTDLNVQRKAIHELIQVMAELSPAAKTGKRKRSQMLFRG
- TEST_PROTOCOL: flow cytometry bead binding; binding buffer (PBS), room temperature, blank-bead signal subtracted; PBS binding buffer (SELEX with 0.1 mg/mL salmon sperm DNA and 1 mg/mL BSA, 37 °C); Kd assay on beads in binding buffer, room temperature, 30 min; pH not stated
- EXPERIMENTAL_SETUP: protein: commercial; chain copies: 2; label: FITC
RECORDED_ENDPOINT: Kd (nM)
Kindly provide the numeric value in nM only, without the unit symbol.

Asked: Need Kd, item B1-4 (ssDNA) DNA: CCGCCCAAATCCCTAAGAGAAGACTGTAATGACATCAAACCAGACACACTACACACGCA
Given back: 74.5
